System: MCF10A cells
Test: MTT cell growth assay
Format: cell-based, human
Details: Homo sapiens, MCF-10A; sections 'high concentrations (~50 μM)' and 'active in vitro that decreased cell growth'; same figures given in μM elsewhere in Table 6; read-out: IC50 MCF10A (head without unit)
Assign IC50 to each entry below.

Exercise: Look up IC50 for this compound: O=C1NC(=S)NC(=O)C1=NNc1cccc(C(=O)O)c1
Solution: > 50 µM

Exercise: Consider next the compound O=C(COC(=O)c1ccc2ccccc2c1O)c1cccs1 in the same way.
Solution: > 50 µM

Exercise: Consider next the compound C=CCN1C(=O)/C(=C\c2ccccc2C(=O)O)SC1=S in the same way.
Solution: > 50 µM

Exercise: Consider next the compound O=C(c1ccc(O)cc1)c1ccccc1O in the same way.
Solution: 10 to 150 µM
